The following compounds are shown together with reported melting point values.
Structures can show the parent of a compound that is named as a salt.

Known melting point results, listed for orientation:
> print(dat)
                                    compound  measured.attribute                result
 1  N=C(N)SCc1ccc(Cl)cc1Oc1cc([N+](=O)[O-])ccc1CSC(=N)N (as salt: hydrobromid) [Example 2.9, dihydrobromide]       melting point              > 220 °C
 2  N=C(N)SCc1cc(Cl)ccc1Oc1ccc([N+](=O)[O-])cc1CSC(=N)N (as salt: hydrobromid) [Example 2.20, dihydrobromide]       melting point              > 220 °C
 3  N=C(N)SCc1ccccc1C(=O)c1ccccc1CSC(=N)N (as salt: hydrobromid) [Example 2.25, dihydrobromide]       melting point  239 to 240 °C (dec.)
 4  N=C(N)SCc1ccccc1Oc1cccc(Cl)c1CSC(=N)N (as salt: hydrobromid) [Example 2.17, dihydrobromide]       melting point         150 to 152 °C
 5  N=C(N)SCc1ccccc1Oc1ccc(Cl)cc1CSC(=N)N (as salt: hydrobromid) [Example 2.16, dihydrobromide]       melting point              > 220 °C
 6   N#CN=C(N)CCc1ccccc1Sc1ccccc1CCC(N)=NC#N       melting point         188 to 190 °C
 7  N=C(N)SCc1ccccc1C(=O)c1cc(F)ccc1CSC(=N)N (as salt: hydrobromid) [Example 2.27, dihydrobromide]       melting point              > 250 °C
 8  N=C(N)SCc1cc(F)ccc1Oc1cccc(Cl)c1CSC(=N)N (as salt: hydrobromid) [Example 2.10, dihydrobromide]       melting point         204 to 206 °C
 9  N=C(N)SCc1ccccc1C(=O)c1ccc(Cl)cc1CSC(=N)N (as salt: hydrobromid) [Example 2.29, dihydrobromide]       melting point              > 250 °C
10  N=C(N)SCc1ccccc1Oc1cc(Cl)ccc1CSC(=N)N (as salt: hydrobromid) [Example 2.18, dihydrobromide]       melting point              > 220 °C

Query :: For the compound N=C(N)SCc1ccccc1C(=O)c1ccc(F)cc1CSC(=N)N (as salt: hydrobromid) [Example 2.26, dihydrobromide] , what melting point is on record?
Result :: > 250 °C

Query :: # input compound: N=C(N)SCc1cccc(CSC(=N)N)c1-c1c(CSC(=N)N)cccc1CSC(=N)N (as salt: hydrobromid) ; wanted: its melting point
Result :: 233 to 235 °C

Query :: Could you share which melting point value was measured for N=C(N)SCc1ccccc1C(=O)c1cc(Cl)ccc1CSC(=N)N (as salt: hydrobromid) [Example 2.28, dihydrobromide dihydrobromide] ?
Result :: > 250 °C
